Change in Thermal Melting Points, Duplex, 2:1 overview
# Test system: Duplex DNA
# MEASUREMENT_DESCRIPTION: Thermal melting UV-Vis absorbance, duplex DNA
# Assay type: binding
# CONDITIONS_USED: ratio 2:1 (R)
Give the value as a plain number.

// known answers, use as guide
Quick check: Change in Thermal Melting Points, Duplex, 2:1 of CC1(C)C(/C=C/C=C2/N(CCC[N+](C)(C)C)c3ccc(Br)cc3C2(C)C)=[N+](CCC[N+](C)(C)C)c2ccc(Br)cc21 ?
−1.0

Quick check: Change in Thermal Melting Points, Duplex, 2:1 of CC1(C)C(=CC=CC2=[N+](CCC[N+](C)(C)C)c3ccc(Cl)cc3C2(C)C)N(CCC[N+](C)(C)C)c2ccc(Cl)cc21.[Br-].[Br-].[Br-] ?
0.0

Quick check: Change in Thermal Melting Points, Duplex, 2:1 of CC1(C)C(=CC=CC2=[N+](CCC[N+](C)(C)C)c3ccccc3C2(C)C)N(CCC[N+](C)(C)C)c2ccccc21.[Br-].[Br-].[Br-] ?
0.9

***
Quick check: Change in Thermal Melting Points, Duplex, 2:1 of CC1(C)C(/C=C/C(Br)=C/C=C2\N(CCC[N+](C)(C)C)c3ccccc3C2(C)C)=[N+](CCC[N+](C)(C)C)c2ccccc21 ?
−1.1

Quick check: Change in Thermal Melting Points, Duplex, 2:1 of CC1(C)C(/C=C/C(Cl)=C/C=C2\N(CCC[N+](C)(C)C)c3ccccc3C2(C)C)=[N+](CCC[N+](C)(C)C)c2ccccc21.[Br-].[Br-].[Br-] ?
0.9
